B1: mRNA-splicing (parent)
chain: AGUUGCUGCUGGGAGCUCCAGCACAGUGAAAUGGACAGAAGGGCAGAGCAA

# Variants of: B1
# protocolDescription: exon inclusion enrichment index; higher = more inclusion; WT1 exon 5 minigene, HEK293
endpointLabel: exon inclusion enrichment index

INSERT INTO assay_data (seqstring, experimentalvalue) VALUES
  ('AGUUAUAUAUGGGAGCUAGAGCACAGUGAAAUGGACAGAAGGGCAGAGCAA [G5A C6U U7A G8U C9A C18A C19G]', 0.00128),
  ('AGUUUCUUUUGGGAGCUCCAGCACAGUGUCAUGGACAGAAGGGCAGAGCAA [G5U G8U C9U A29U A30C]', 0.0859),
  ('AGUUGCUGCUGGGAGCUCCAGCACAGCCAAAUGGACAGAAGGGCAGAGCAA [U27C G28C]', 0.105),
  ('AGUUCACAUUGGGAGCUCCAGCACAGUGAAAUGGACAGAAGGGCAGAGCAA [G5C C6A U7C G8A C9U]', 0.616),
  ('AGUUCGCGCCGUAAGCUCCAGCACAGUGAAAUGGACAGAAGGGCAGAGCAA [G5C C6G U7C U10C G12U G13A]', 0.404),
  ('AGUUGAAGAAGGGAGCUCCAGCACAGUGAAAUGGACAGAAAAGCAGAGCAA [C6A U7A C9A U10A G41A G42A]', 0.559),
  ('AGUUGACGACGGUGGCUCCAGCACAGUGAAAUGGACAGAAGGGCAGAGCAA [C6A U7C C9A U10C G13U A14G]', 2.11),
  ('AGUUACCCACGGGAGCUCCAGCACAGUGAAAUGGACAGAAGGGCAGAGCAA [G5A U7C G8C C9A U10C]', 1.56),
  ('AGUUAUAUAUGGGAGCUCCUACACAGUGAAAUGGACAGAAGGGCAGAGCAA [G5A C6U U7A G8U C9A A20U G21A]', 0.0106),
  ('AGUUAUAUAUGGGAGCUCCAGCACAGUGAAAUGGAAUGAAGGGCAGAGCAA [G5A C6U U7A G8U C9A C36A A37U]', 0.0158),
  ('AGUUACCACCGGGAGCUCCAGCACAGAAAAAUGGACAGAAGGGCAGAGCAA [G5A U7C G8A U10C U27A G28A]', 2.27),
  ('AGCACGCGCCGGGAGCUCCAGCACAGUGAAAUGGACAGAAGGGCAGAGCAA [U3C U4A G5C C6G U7C U10C]', 2.55),
  ('AGUUCUUCUCGGGAGCUCCAGUUCAGUGAAAUGGACAGAAGGGCAGAGCAA [G5C C6U G8C C9U U10C C22U A23U]', 1.09),
  ('AGUUGCUGCUGGGAGCUCCAGCACAGUGAAAUGGACAGAAUAGCAGAGCAA [G41U G42A]', 0.0358),
  ('AGUUAGCGAUGGGAGCUCCAGCACAGUGAAAUGGACAGAAGGGCAGAGCAA [G5A C6G U7C C9A]', 0.117),
  ('AGUUUCUUUUGGGAGCUCCAGCAGGGUGAAAUGGACAGAAGGGCAGAGCAA [G5U G8U C9U C24G A25G]', 0.0358),
  ('AGUUAGGGAUGGGAGCUCCAGCACAGUGAAAAUGACAGAAGGGCAGAGCAA [G5A C6G U7G C9A U32A G33U]', 0.00206),
  ('AGUUCUUGGCGGGAGCUCCAGCACAGUGAAAUGGACAGAAGGGCAGAGCAA [G5C C6U C9G U10C]', 1.31),
  ('AGUUGAAGAAGGGAGCUCCAGCAGAGUGAAAUGGACAGAAGGGCAGAGCAA [C6A U7A C9A U10A C24G]', 0.763),
  ('AGUUAUAUAUGGGAGCUCCAGCACAGUGAAGAGGACAGAAGGGCAGAGCAA [G5A C6U U7A G8U C9A A31G U32A]', 0.855),
  ('AGUUGACGACGGGAGCUCCAGCACAGUGAAAUGGACAGAGAGGCAGAGCAA [C6A U7C C9A U10C A40G G41A]', 1.83),
  ('AGUUUCUUUUGGGAGCUCCAGCACAGUGAAAUGGACAGGUGGGCAGAGCAA [G5U G8U C9U A39G A40U]', 0.00232),
  ('AGUUCGCGCCGGAAGCUCCAGCACAGUGAAAUGGACAGAAGGGCAGAGCAA [G5C C6G U7C U10C G13A]', 3.34);
